src = ChEMBL document CHEMBL3627667

Assay: Cytotoxicity against African green monkey Vero cells assessed as alteration in cell morphology by microscopy
Type: cell-based
Conditions: chlorocebus sabaeus
Please respond with reported MCC for every item in the list.

Per the records, this compound ( O=C1O/C(=C\Cn2cnc3c(F)nc(F)c(Cl)c32)C(OCc2ccccc2)=C1OCc1ccccc1 ) has MCC equal to ≥ 20 µM

Per the records, this compound ( O=C1O/C(=C\Cn2cnc3ccn(C/C=C4\OC(=O)C(OCc5ccccc5)=C4OCc4ccccc4)c3c2=O)C(OCc2ccccc2)=C1OCc1ccccc1 ) has MCC equal to ≥ 20 µM

Per the records, this compound ( Nc1ncnc2c1ncn2C[C@H](O)CO [(S)-DHPA] ) has MCC equal to > 250 µM

Per the records, this compound ( O=C1O/C(=C\Cn2cnc3c(Cl)c(F)nc(F)c32)C(OCc2ccccc2)=C1OCc1ccccc1 (mixture of isomers) ) has MCC equal to 20 µM

Per the records, this compound ( NC(=O)c1ncn([C@@H]2O[C@H](CO)[C@@H](O)[C@H]2O)n1 [RIBAVIRIN] ) has MCC equal to > 250 µM

###

Test system: Human respirovirus 3
Assay: Antiviral activity against Parainfluenza virus 3 expressed in African green monkey Vero cells assessed as reduction in cytopathogenicity
Assay type: functional, organism-based
Conditions: Human respirovirus 3, Vero
pEC50: −log10 of the molar value.
Recorded Metric: pEC50

Per the records, this compound ( O=C1O/C(=C\Cn2cnc3c(F)nc(F)c(Cl)c32)C(OCc2ccccc2)=C1OCc1ccccc1 ) has pEC50 equal to < 4.70

Per the records, this compound ( O=C1O/C(=C\Cn2cnc3c(Cl)c(F)nc(F)c32)C(OCc2ccccc2)=C1OCc1ccccc1 (mixture of isomers) ) has pEC50 equal to < 4.70

Per the records, this compound ( NC(=O)c1ncn([C@@H]2O[C@H](CO)[C@@H](O)[C@H]2O)n1 ) has pEC50 equal to 4.13

Per the records, this compound ( O=C1O/C(=C\Cn2cnc3ccn(C/C=C4\OC(=O)C(OCc5ccccc5)=C4OCc4ccccc4)c3c2=O)C(OCc2ccccc2)=C1OCc1ccccc1 ) has pEC50 equal to < 4.70

Per the records, this compound ( Nc1ncnc2c1ncn2C[C@H](O)CO [(S)-DHPA] ) has pEC50 equal to < 3.60

###

System: SW-620
Experiment: Antiproliferative activity against human SW620 cells incubated for 72 hrs by MTT assay
Type: functional, cell-based
Settings: Homo sapiens, SW-620, 72 h
Recorded Metric: pIC50
Friendly reminder that pIC50 comes from taking -log10 of the concentration in mol/L.

Per the records, this compound ( COc1nc(OC)c2c(ccn2C/C=C2\OC(=O)C(OCc3ccccc3)=C2OCc2ccccc2)n1 (mixture of isomers) ) has pIC50 equal to 4.33

Per the records, this compound ( O=C1O/C(=C\Cn2cnc3c(Cl)c(F)nc(F)c32)C(OCc2ccccc2)=C1OCc1ccccc1 (mixture of isomers) ) has pIC50 equal to 4.30

Per the records, this compound ( O=C1O/C(=C\Cn2cnc3cncc(Br)c32)C(OCc2ccccc2)=C1OCc1ccccc1 (mixture of isomers) ) has pIC50 equal to 4.48

Per the records, this compound ( O=c1[nH]cc(F)c(=O)[nH]1 ) has pIC50 equal to 6.10

Per the records, this compound ( O=C1O/C(=C\Cn2cnc3c(F)nc(F)c(Cl)c32)C(OCc2ccccc2)=C1OCc1ccccc1 ) has pIC50 equal to 4.26

Per the records, this compound ( Nc1nc(F)c(Cl)c2c1ncn2CCC1(O)NC(=O)C(OCc2ccccc2)=C1OCc1ccccc1 (configuration not stated) ) has pIC50 equal to 4.23

###

Test system: HeLa
Assay: Antiproliferative activity against human HeLa cells incubated for 72 hrs by MTT assay
Type: functional, cell-based
Details: Homo sapiens, HeLa, 72 h
Please respond with reported IC50 for every item in the list.
A number alone suffices; assume µM.

Per the records, this compound ( O=C1O/C(=C\Cn2cnc3cncc(Br)c32)C(OCc2ccccc2)=C1OCc1ccccc1 (mixture of isomers) ) has IC50 equal to 15

Per the records, this compound ( Nc1nc(F)c(Cl)c2c1ncn2CCC1(O)NC(=O)C(OCc2ccccc2)=C1OCc1ccccc1 (centres undefined) ) has IC50 equal to 39

Per the records, this compound ( O=C1O/C(=C\Cn2cnc3cc[nH]c3c2=O)C(OCc2ccccc2)=C1OCc1ccccc1 ) has IC50 equal to 27

Per the records, this compound ( COc1nc(OC)c2c(ccn2C/C=C2\OC(=O)C(OCc3ccccc3)=C2OCc2ccccc2)n1 (mixture of isomers) ) has IC50 equal to 12

Per the records, this compound ( O=C1NC(O)(CCn2cnc3cncc(Br)c32)C(OCc2ccccc2)=C1OCc1ccccc1 (centres undefined) ) has IC50 equal to 77

Per the records, this compound ( O=C1NC(O)(CCn2cnc3cc[nH]c3c2=O)C(OCc2ccccc2)=C1OCc1ccccc1 (centres undefined) ) has IC50 equal to 92

Per the records, this compound ( O=C1NC(O)(CCn2cnc3ccn(CCC4(O)NC(=O)C(OCc5ccccc5)=C4OCc4ccccc4)c3c2=O)C(OCc2ccccc2)=C1OCc1ccccc1 (stereo in doubt; 18) ) has IC50 equal to 17

###

Please respond with reported pEC50 for every item in the list.
Test system: Mammalian orthoreovirus 1
Assay: Antiviral activity against Reovirus 1 expressed in African green monkey Vero cells assessed as reduction in cytopathogenicity
Type: functional, cell-based
Settings: Mammalian orthoreovirus 1, Vero
pEC50: −log10 of the molar value.

Per the records, this compound ( O=C1O/C(=C\Cn2cnc3c(Cl)c(F)nc(F)c32)C(OCc2ccccc2)=C1OCc1ccccc1 (mixture of isomers) ) has pEC50 equal to < 4.70

Per the records, this compound ( NC(=O)c1ncn([C@@H]2O[C@H](CO)[C@@H](O)[C@H]2O)n1 ) has pEC50 equal to < 3.60

Per the records, this compound ( O=C1O/C(=C\Cn2cnc3ccn(C/C=C4\OC(=O)C(OCc5ccccc5)=C4OCc4ccccc4)c3c2=O)C(OCc2ccccc2)=C1OCc1ccccc1 ) has pEC50 equal to < 4.70

Per the records, this compound ( Nc1ncnc2c1ncn2C[C@H](O)CO [(S)-DHPA] ) has pEC50 equal to < 3.60

Per the records, this compound ( O=C1O/C(=C\Cn2cnc3c(F)nc(F)c(Cl)c32)C(OCc2ccccc2)=C1OCc1ccccc1 ) has pEC50 equal to < 4.70

###

System: HEL
Test: Cytotoxicity against human HEL cells assessed as cell growth reduction incubated for 3 days
Format: cell-based
Settings: 72 h
Please respond with reported CC50 for every item in the list.
A number alone suffices; assume µM.

Per the records, this compound ( Nc1ccn(C[C@@H](CO)OCP(=O)(O)O)c(=O)n1 ) has CC50 equal to 153

Per the records, this compound ( Nc1nc(O)c2ncn(COC(CO)CO)c2n1 ) has CC50 equal to 328

Per the records, this compound ( COc1nc(OC)c2c(ccn2C/C=C2\OC(=O)C(OCc3ccccc3)=C2OCc2ccccc2)n1 (mixture of isomers) ) has CC50 equal to 36.6

###

Please respond with reported IC50 for every item in the list.
Test: Antiproliferative activity against human CEM/0 cells incubated for 72 hrs by MTT assay
Format: functional, cell-based, CCRF-CEM
Settings: ccrf-cem
A number alone suffices; assume µM.

Per the records, this compound ( O=C1NC(O)(CCn2cnc3ccn(CCC4(O)NC(=O)C(OCc5ccccc5)=C4OCc4ccccc4)c3c2=O)C(OCc2ccccc2)=C1OCc1ccccc1 (stereo in doubt; 19) ) has IC50 equal to 4.9

Per the records, this compound ( O=C1NC(O)(CCn2cnc3ccn(CCC4(O)NC(=O)C(OCc5ccccc5)=C4OCc4ccccc4)c3c2=O)C(OCc2ccccc2)=C1OCc1ccccc1 (stereo in doubt; 18) ) has IC50 equal to 15

###

Assay: Cytotoxicity against human HEL cells assessed as alteration in cell morphology incubated for 3 days by microscopy
Format: cell-based
Recorded Metric: MCC at 72 h

Per the records, this molecule ( Nc1nc(O)c2ncn(COC(CO)CO)c2n1 ) has MCC at 72 h equal to > 350 µM

Per the records, this molecule ( O=C1O/C(=C\Cn2cnc3c(Cl)c(F)nc(F)c32)C(OCc2ccccc2)=C1OCc1ccccc1 (mixture of isomers) ) has MCC at 72 h equal to ≥ 100 µM

Per the records, this molecule ( Nc1ccn(C[C@@H](CO)OCP(=O)(O)O)c(=O)n1 ) has MCC at 72 h equal to > 300 µM

Per the records, this molecule ( O=C1O/C(=C\Cn2cnc3c(F)nc(F)c(Cl)c32)C(OCc2ccccc2)=C1OCc1ccccc1 ) has MCC at 72 h equal to > 100 µM

Per the records, this molecule ( COc1nc(OC)c2c(ccn2C/C=C2\OC(=O)C(OCc3ccccc3)=C2OCc2ccccc2)n1 (mixture of isomers) ) has MCC at 72 h equal to ≥ 20 µM

###

System: Sindbis virus
Assay: Antiviral activity against Sindbis virus expressed in African green monkey Vero cells assessed as reduction in cytopathogenicity
Type: functional, organism-based
Please respond with reported EC50 for every item in the list.

Per the records, this molecule ( O=C1O/C(=C\Cn2cnc3ccn(C/C=C4\OC(=O)C(OCc5ccccc5)=C4OCc4ccccc4)c3c2=O)C(OCc2ccccc2)=C1OCc1ccccc1 ) has EC50 equal to > 20 µM

Per the records, this molecule ( O=C1O/C(=C\Cn2cnc3c(F)nc(F)c(Cl)c32)C(OCc2ccccc2)=C1OCc1ccccc1 ) has EC50 equal to > 20 µM

Per the records, this molecule ( NC(=O)c1ncn([C@@H]2O[C@H](CO)[C@@H](O)[C@H]2O)n1 [RIBAVIRIN] ) has EC50 equal to > 250 µM

Per the records, this molecule ( O=C1O/C(=C\Cn2cnc3c(Cl)c(F)nc(F)c32)C(OCc2ccccc2)=C1OCc1ccccc1 (mixture of isomers) ) has EC50 equal to > 20 µM

Per the records, this molecule ( Nc1ncnc2c1ncn2C[C@H](O)CO [(S)-DHPA] ) has EC50 equal to > 250 µM
